Cited source: the supplement of paper PMC12350171

- Test system: Com21 synthetic gut community
- assay name: community biomass OD578 after 24 h drug treatment relative to untreated (fraction of untreated control); higher = more community growth
- measurement parameters: drug pretreatment concentration 80 µM; community: Com21 (Com20 + E. coli ED1a)
Answer not met if community biomass OD578 is under 0.9, and met if it is 0.9 or more.

compound	group
CN(N=O)C(=O)N[C@@H](C=O)[C@@H](O)[C@H](O)[C@H](O)CO	not met
CN(C)CC/C=C1/c2ccccc2Sc2ccc(Cl)cc21	met
C[C@]12CCC3=C4CCC(=O)C=C4CC[C@H]3[C@@H]1CC[C@@]2(O)CC#N	met

Exam item: In plain terms: is recorded community biomass OD578 at least 0.9 for CC(C)(C)c1ccc(C(O)CCCN2CCC(C(O)(c3ccccc3)c3ccccc3)CC2)cc1 (stereo unspecified) ?
Marked response: not met

Exam item: Could you verify whether the entry CCN(CC)CCOc1ccc(C(=C(Cl)c2ccccc2)c2ccccc2)cc1 shows community biomass OD578 of no less than 0.9?
Marked response: not met

---

- Test system: Streptococcus parasanguinis;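 further: lowest concentration where monotonic median growth AUC falls below 0.75 of drug-free control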
- assay name: IC25 growth inhibition; higher = less potent
Catalogue of IC25 growth inhibition values

Before answering, review these 5 worked examples.
compound	IC25 growth inhibition
CCn1cc(C(=O)O)c(=O)c2ccc(C)nc21 [Nalidixic Acid]	> 160 µM
COCCOC(=O)C1=C(C)NC(C)=C(C(=O)OC/C=C/c2ccccc2)C1c1cccc([N+](=O)[O-])c1 (centres undefined) [Cilnidipine]	> 20 µM
CC[C@H]1OC(=O)[C@H](C)[C@@H](O[C@H]2C[C@@](C)(OC)[C@@H](O)[C@H](C)O2)[C@H](C)[C@@H](O[C@@H]2O[C@H](C)C[C@H](N(C)C)[C@H]2O)[C@](C)(O)C[C@@H](C)C(=O)[C@H](C)[C@@H](O)[C@]1(C)O [Erythromycin]	< 1.25 µM
CN1CCN(C2=Nc3ccccc3Oc3ccc(Cl)cc32)CC1 [Loxapine]	> 160 µM
OC(Cn1cncn1)(Cn1cncn1)c1ccc(F)cc1F [Fluconazole]	> 160 µM

Exam item: Please tell me the measured IC25 growth inhibition for CCOC(=O)N1CCC(=C2c3ccc(Cl)cc3CCc3cccnc32)CC1 [Loratadine] ; system: Streptococcus parasanguinis.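 Further: lowest concentration where monotonic median growth AUC falls below 0.75 of drug-free control.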
Marked response: > 160 µM

Exam item: Given CCC(C)(C)C(=O)O[C@H]1C[C@@H](C)C=C2C=C[C@H](C)[C@H](CC[C@@H]3C[C@@H](O)CC(=O)O3)[C@H]21 [Simvastatin] , report its IC25 growth inhibition on Streptococcus parasanguinis.
Marked response: ≤ 80 µM

Exam item: Check Streptococcus parasanguinis data and give IC25 growth inhibition for C#C[C@]1(O)CC[C@H]2[C@@H]3CCc4cc(O)ccc4[C@H]3CC[C@@]21C [Ethinylestradiol] .
Marked response: > 80 µM

Exam item: Fill in IC25 growth inhibition for C[C@H]1O[C@H](O[C@H]2[C@H](O)[C@@H](O)[C@@H](O[C@H]3[C@H](O)[C@@H](O)C(O)O[C@@H]3CO)O[C@@H]2CO)[C@H](O)[C@@H](O)[C@@H]1N[C@H]1C=C(CO)[C@@H](O)[C@H](O)[C@H]1O (some centres undefined) [Acarbose] tested with Streptococcus parasanguinis.
Marked response: > 160 µM

Exam item: Look up Streptococcus parasanguinis data: IC25 growth inhibition of N[C@@H](Cc1cc(I)c(Oc2cc(I)c(O)c(I)c2)c(I)c1)C(=O)O [L-Thyroxin] , then report it.
Marked response: > 160 µM
